assay: Growth inhibition of human Hs 578T cells after 48 hrs by sulforhodamine B assay; type: functional
Quantity: GI50 (µM)

INSERT INTO results (smiles_code, quantity, endpoint_result) VALUES
  ('COc1cc(/C=C/c2cc(O)c3c(c2)C[C@@H]2C(C)(C)[C@H](O)CC[C@@]2(C)O3)cc(O)c1C/C=C(\C)CCC=C(C)C', 'GI50', 0.0372),
  ('COc1cc(/C=C/c2cc(F)c3c(c2)C[C@@H]2C(C)(C)[C@H](O)CC[C@@]2(C)O3)cc(O)c1C/C=C(\C)CCC=C(C)C', 'GI50', 8.71),
  ('COc1cc(/C=C/c2ccc3c(c2)C[C@@H]2C(C)(C)[C@H](O)CC[C@@]2(C)O3)cc(O)c1C/C=C(\C)CCC=C(C)C', 'GI50', 8.71);

###

system: RPMI-8226; experiment: Growth inhibition of human RPMI8226 cells after 48 hrs by sulforhodamine B assay; format: functional; conditions: RPMI-8226, 48 h
Quantity: LC50

INSERT INTO measurements (smiles_code, endpoint_result) VALUES
  ('COc1cc(/C=C/c2cc3c(c(OC)c2)O[C@]2(C)CC[C@@H](O)C(C)(C)[C@H]2C3)cc(O)c1C/C=C(\C)CCC=C(C)C', '> 50.1 µM'),
  ('COc1cc(/C=C/c2ccc3c(c2)C[C@@H]2C(C)(C)[C@H](O)CC[C@@]2(C)O3)cc(O)c1C/C=C(\C)CCC=C(C)C', '> 100 µM'),
  ('COCOc1cc(/C=C/c2cc(C=O)c3c(c2)C[C@@H]2C(C)(C)[C@H](O)CC[C@@]2(C)O3)cc(OC)c1C/C=C(\C)CCC=C(C)C', '> 100 µM'),
  ('COc1cc(/C=C/c2cc3c(c(SC)c2)O[C@]2(C)CC[C@@H](O)C(C)(C)[C@H]2C3)cc(O)c1C/C=C(\C)CCC=C(C)C', '> 100 µM'),
  ('COc1cc(/C=C/c2cc(O)c3c(c2)C[C@@H]2C(C)(C)[C@H](O)CC[C@@]2(C)O3)cc(O)c1C/C=C(\C)CCC=C(C)C', '100 µM'),
  ('COc1cc(/C=C/c2cc(F)c3c(c2)C[C@@H]2C(C)(C)[C@H](O)CC[C@@]2(C)O3)cc(O)c1C/C=C(\C)CCC=C(C)C', '> 100 µM'),
  ('COCOc1cc(/C=C/c2cc(CO)c3c(c2)C[C@@H]2C(C)(C)[C@H](O)CC[C@@]2(C)O3)cc(OC)c1C/C=C(\C)CCC=C(C)C', '> 100 µM');

###

tested on: SF-539; experiment: Growth inhibition of human SF539 cells after 48 hrs by sulforhodamine B assay; assay type: functional; settings: SF-539, 48 h
Quantity: GI50 (µM)

INSERT INTO measurements (smiles_code, unit_descriptor, endpoint_result) VALUES
  ('COc1cc(/C=C/c2ccc3c(c2)C[C@@H]2C(C)(C)[C@H](O)CC[C@@]2(C)O3)cc(O)c1C/C=C(\C)CCC=C(C)C', 'µM', 4.17),
  ('COc1cc(/C=C/c2cc(F)c3c(c2)C[C@@H]2C(C)(C)[C@H](O)CC[C@@]2(C)O3)cc(O)c1C/C=C(\C)CCC=C(C)C', 'µM', 3.89),
  ('COCOc1cc(/C=C/c2cc(CO)c3c(c2)C[C@@H]2C(C)(C)[C@H](O)CC[C@@]2(C)O3)cc(OC)c1C/C=C(\C)CCC=C(C)C', 'µM', 0.141),
  ('COc1cc(/C=C/c2cc3c(c(OC)c2)O[C@]2(C)CC[C@@H](O)C(C)(C)[C@H]2C3)cc(O)c1C/C=C(\C)CCC=C(C)C', 'µM', 0.155),
  ('COCOc1cc(/C=C/c2cc(C=O)c3c(c2)C[C@@H]2C(C)(C)[C@H](O)CC[C@@]2(C)O3)cc(OC)c1C/C=C(\C)CCC=C(C)C', 'µM', 0.891),
  ('COc1cc(/C=C/c2cc3c(c(SC)c2)O[C@]2(C)CC[C@@H](O)C(C)(C)[C@H]2C3)cc(O)c1C/C=C(\C)CCC=C(C)C', 'µM', 3.98),
  ('COc1cc(/C=C/c2cc(O)c3c(c2)C[C@@H]2C(C)(C)[C@H](O)CC[C@@]2(C)O3)cc(O)c1C/C=C(\C)CCC=C(C)C', 'µM', 0.0525);

###

experiment: Growth inhibition of human Hs 578T cells after 48 hrs by sulforhodamine B assay; format: functional
Quantity: GI50 (µM)

INSERT INTO assay_data (smiles_code, quantity, endpoint_result) VALUES
  ('COCOc1cc(/C=C/c2cc(C=O)c3c(c2)C[C@@H]2C(C)(C)[C@H](O)CC[C@@]2(C)O3)cc(OC)c1C/C=C(\C)CCC=C(C)C', 'GI50', 1.74),
  ('COc1cc(/C=C/c2cc3c(c(SC)c2)O[C@]2(C)CC[C@@H](O)C(C)(C)[C@H]2C3)cc(O)c1C/C=C(\C)CCC=C(C)C', 'GI50', 2.4),
  ('COCOc1cc(/C=C/c2cc(CO)c3c(c2)C[C@@H]2C(C)(C)[C@H](O)CC[C@@]2(C)O3)cc(OC)c1C/C=C(\C)CCC=C(C)C', 'GI50', 0.55);

###

The entries below come with measured LC50 values attached.
tested on: SNB-75; test: Growth inhibition of human SNB75 cells after 48 hrs by sulforhodamine B assay; format: functional; conditions: SNB-75, 48 h
Quantity: LC50 (µM)

INSERT INTO measurements (smiles_code, unit_descriptor, measurement_qualifier, endpoint_result) VALUES
  ('COc1cc(/C=C/c2cc3c(c(OC)c2)O[C@]2(C)CC[C@@H](O)C(C)(C)[C@H]2C3)cc(O)c1C/C=C(\C)CCC=C(C)C', 'µM', '=', 30.2),
  ('COc1cc(/C=C/c2cc3c(c(SC)c2)O[C@]2(C)CC[C@@H](O)C(C)(C)[C@H]2C3)cc(O)c1C/C=C(\C)CCC=C(C)C', 'µM', '>', 100),
  ('COCOc1cc(/C=C/c2cc(CO)c3c(c2)C[C@@H]2C(C)(C)[C@H](O)CC[C@@]2(C)O3)cc(OC)c1C/C=C(\C)CCC=C(C)C', 'µM', '>', 100),
  ('COc1cc(/C=C/c2cc(F)c3c(c2)C[C@@H]2C(C)(C)[C@H](O)CC[C@@]2(C)O3)cc(O)c1C/C=C(\C)CCC=C(C)C', 'µM', '=', 37.2),
  ('COc1cc(/C=C/c2cc(O)c3c(c2)C[C@@H]2C(C)(C)[C@H](O)CC[C@@]2(C)O3)cc(O)c1C/C=C(\C)CCC=C(C)C', 'µM', '=', 33.9),
  ('COCOc1cc(/C=C/c2cc(C=O)c3c(c2)C[C@@H]2C(C)(C)[C@H](O)CC[C@@]2(C)O3)cc(OC)c1C/C=C(\C)CCC=C(C)C', 'µM', '>', 100),
  ('COc1cc(/C=C/c2ccc3c(c2)C[C@@H]2C(C)(C)[C@H](O)CC[C@@]2(C)O3)cc(O)c1C/C=C(\C)CCC=C(C)C', 'µM', '>', 100);

###

system: T47D; assay: Growth inhibition of human T47D cells after 48 hrs by sulforhodamine B assay; assay type: functional
Parameter: GI50. Scope: all listed entries.
Quantity: GI50 (µM)

INSERT INTO measurements (smiles_code, quantity, endpoint_result) VALUES
  ('COCOc1cc(/C=C/c2cc(CO)c3c(c2)C[C@@H]2C(C)(C)[C@H](O)CC[C@@]2(C)O3)cc(OC)c1C/C=C(\C)CCC=C(C)C', 'GI50', 11.5),
  ('COc1cc(/C=C/c2cc3c(c(OC)c2)O[C@]2(C)CC[C@@H](O)C(C)(C)[C@H]2C3)cc(O)c1C/C=C(\C)CCC=C(C)C', 'GI50', 2.29),
  ('COCOc1cc(/C=C/c2cc(C=O)c3c(c2)C[C@@H]2C(C)(C)[C@H](O)CC[C@@]2(C)O3)cc(OC)c1C/C=C(\C)CCC=C(C)C', 'GI50', 13.5),
  ('COc1cc(/C=C/c2cc3c(c(SC)c2)O[C@]2(C)CC[C@@H](O)C(C)(C)[C@H]2C3)cc(O)c1C/C=C(\C)CCC=C(C)C', 'GI50', 14.5),
  ('COc1cc(/C=C/c2cc(O)c3c(c2)C[C@@H]2C(C)(C)[C@H](O)CC[C@@]2(C)O3)cc(O)c1C/C=C(\C)CCC=C(C)C', 'GI50', 1.41),
  ('COc1cc(/C=C/c2ccc3c(c2)C[C@@H]2C(C)(C)[C@H](O)CC[C@@]2(C)O3)cc(O)c1C/C=C(\C)CCC=C(C)C', 'GI50', 20.9),
  ('COc1cc(/C=C/c2cc(F)c3c(c2)C[C@@H]2C(C)(C)[C@H](O)CC[C@@]2(C)O3)cc(O)c1C/C=C(\C)CCC=C(C)C', 'GI50', 12.3);

Values were extracted from ChEMBL document CHEMBL1926642.
